Tested on: 2Sp-muMax20 (muMax20 with two 2,6-bis(methyl)pyridine Cys staples)
Assay: PBM 8-mer E-score (E-score (rank enrichment, -0.5 to 0.5)); higher = stronger preferential binding
In all, about 33,000 sequences were measured (“E-score (rank enrichment, -0.5 to 0.5)”: median about -0.0043, highest 2% from about 0.24 on). This excerpt belongs to a sample that is enriched for the highest values.

[
  {
    "sequenceText": "ATAACATC",
    "target": "2Sp-muMax20 (muMax20 with two 2,6-bis(methyl)pyridine Cys staples)",
    "PBM 8-mer E-score": 0.236
  },
  {
    "sequenceText": "GTCCATCA",
    "target": "2Sp-muMax20 (muMax20 with two 2,6-bis(methyl)pyridine Cys staples)",
    "PBM 8-mer E-score": -0.0683
  },
  {
    "sequenceText": "GACATCTC",
    "target": "2Sp-muMax20 (muMax20 with two 2,6-bis(methyl)pyridine Cys staples)",
    "PBM 8-mer E-score": -0.202
  },
  {
    "sequenceText": "AATTGTAC",
    "target": "2Sp-muMax20 (muMax20 with two 2,6-bis(methyl)pyridine Cys staples)",
    "PBM 8-mer E-score": 0.22
  },
  {
    "sequenceText": "ACCAAACC",
    "target": "2Sp-muMax20 (muMax20 with two 2,6-bis(methyl)pyridine Cys staples)",
    "PBM 8-mer E-score": 0.0152
  },
  {
    "sequenceText": "CCACGCCC",
    "target": "2Sp-muMax20 (muMax20 with two 2,6-bis(methyl)pyridine Cys staples)",
    "PBM 8-mer E-score": 0.0986
  },
  {
    "sequenceText": "ACCAAATG",
    "target": "2Sp-muMax20 (muMax20 with two 2,6-bis(methyl)pyridine Cys staples)",
    "PBM 8-mer E-score": -0.043
  },
  {
    "sequenceText": "ATGGAGGG",
    "target": "2Sp-muMax20 (muMax20 with two 2,6-bis(methyl)pyridine Cys staples)",
    "PBM 8-mer E-score": 0.168
  },
  {
    "sequenceText": "ATGTACTA",
    "target": "2Sp-muMax20 (muMax20 with two 2,6-bis(methyl)pyridine Cys staples)",
    "PBM 8-mer E-score": 0.258
  },
  {
    "sequenceText": "ACCTAAGT",
    "target": "2Sp-muMax20 (muMax20 with two 2,6-bis(methyl)pyridine Cys staples)",
    "PBM 8-mer E-score": -0.0381
  },
  {
    "sequenceText": "AGACCAAC",
    "target": "2Sp-muMax20 (muMax20 with two 2,6-bis(methyl)pyridine Cys staples)",
    "PBM 8-mer E-score": -0.0312
  },
  {
    "sequenceText": "CTCACCAC",
    "target": "2Sp-muMax20 (muMax20 with two 2,6-bis(methyl)pyridine Cys staples)",
    "PBM 8-mer E-score": 0.0921
  },
  {
    "sequenceText": "ACAAGGGG",
    "target": "2Sp-muMax20 (muMax20 with two 2,6-bis(methyl)pyridine Cys staples)",
    "PBM 8-mer E-score": 0.0199
  },
  {
    "sequenceText": "CTGTAATA",
    "target": "2Sp-muMax20 (muMax20 with two 2,6-bis(methyl)pyridine Cys staples)",
    "PBM 8-mer E-score": 0.134
  },
  {
    "sequenceText": "AGGCGAAA",
    "target": "2Sp-muMax20 (muMax20 with two 2,6-bis(methyl)pyridine Cys staples)",
    "PBM 8-mer E-score": -0.0363
  },
  {
    "sequenceText": "ATAACCAG",
    "target": "2Sp-muMax20 (muMax20 with two 2,6-bis(methyl)pyridine Cys staples)",
    "PBM 8-mer E-score": 0.0292
  },
  {
    "sequenceText": "ATAACATG",
    "target": "2Sp-muMax20 (muMax20 with two 2,6-bis(methyl)pyridine Cys staples)",
    "PBM 8-mer E-score": 0.229
  },
  {
    "sequenceText": "CTCACGCA",
    "target": "2Sp-muMax20 (muMax20 with two 2,6-bis(methyl)pyridine Cys staples)",
    "PBM 8-mer E-score": 0.12
  },
  {
    "sequenceText": "ATAACAAC",
    "target": "2Sp-muMax20 (muMax20 with two 2,6-bis(methyl)pyridine Cys staples)",
    "PBM 8-mer E-score": 0.0625
  },
  {
    "sequenceText": "ATAACAAT",
    "target": "2Sp-muMax20 (muMax20 with two 2,6-bis(methyl)pyridine Cys staples)",
    "PBM 8-mer E-score": 0.244
  },
  {
    "sequenceText": "CCGATAAG",
    "target": "2Sp-muMax20 (muMax20 with two 2,6-bis(methyl)pyridine Cys staples)",
    "PBM 8-mer E-score": -0.181
  },
  {
    "sequenceText": "ACCATTCT",
    "target": "2Sp-muMax20 (muMax20 with two 2,6-bis(methyl)pyridine Cys staples)",
    "PBM 8-mer E-score": 0.0547
  }
]
